Data origin: paper PMC11126936

system: HGC-27 cells; assay: Cell viability assay in HGC-27 cells; format: cell-based, human; conditions: cell viability; listed as phenylmercuric acetate; read-out: IC50 values in HGC-27 cells
pIC50: −log10 of the molar value.
MEASURED PARAMETER: pIC50

Query: Entry under review: CC(=O)[O][Hg][c]1ccccc1 [Phenylmercuric acetate] . Reported pIC50?
Response: > 5.30
